target: T1, human MSLN-FL-his protein (human, UniProt Q13421 296-580); experiment: competitive ELISA; row F8-33.12; further: test concentration or dose not given here
T1 construct: made in HEK293E cells, purified on nickel column; also called hMSLN-FL-his; human MSLN full-length protein; not shown: His tag
T1 sequence (Q13421 other isoform, or with tags, fused parts or gaps): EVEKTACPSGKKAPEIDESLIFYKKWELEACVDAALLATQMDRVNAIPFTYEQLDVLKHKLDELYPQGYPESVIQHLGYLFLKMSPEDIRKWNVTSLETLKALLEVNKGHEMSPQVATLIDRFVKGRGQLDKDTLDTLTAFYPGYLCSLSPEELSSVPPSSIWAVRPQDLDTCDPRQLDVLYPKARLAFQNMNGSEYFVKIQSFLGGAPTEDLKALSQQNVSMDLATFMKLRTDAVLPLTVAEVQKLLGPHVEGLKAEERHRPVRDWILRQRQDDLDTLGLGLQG
Measured competition rate accompanies every entry in the list below.
Measured Metric: competition rate (%)

S009-F8-29.1 (antibody, human IgG1, kappa, V domains shown, human-murine chimeric antibody, human IgG1/kappa constant regions) VH: QVQLQQSGAELARPGASVKMSCKASGYTFISYTMHWVKQRPGQGLEWIGYINPSSGYTKYNQKFKDKATLTADKSSSTAYMQLNSLTSEDSAVYYCARYYSNPDYYAMDYWGQGTSVTVSS VL: QIVLTQSPAIMSASPGEKVTITCSASSSVSYMHWFQQKPGTSPKLWIYSTSNLASGVPARFSGSGSGTSYSLTISRMEAEDAATYYCQQRSSYPLTFGGGTKLELKR | 47.3
S009-F8-32.3 (antibody, human IgG1, kappa, V domains shown, human-murine chimeric antibody, human IgG1/kappa constant regions) VH: QVQLKESGPGLVAPSQSLSITCTVSGFSLSSYAISWVRQPPGKGLEWLGVIWTGGGTNYNSALKSRLSISKDNSKSQVFLKMNSLQTDDTARFYCARNNYGRLDYAMDYWGQGTSVTVSS VL: DVVMTQTPLSLPVSLGDQASISCRSSQSLVHGNGNTYLHWYLQKPGQSPKLLIYKVSNRFSGVPDRFSGSGSGTDFTLKISRVETEDLGVYFCSQSTHVPFTFGSGTKLEIKR | 56.5
S009-F8-24.14 (antibody, human IgG1, kappa, V domains shown, human-murine chimeric antibody, human IgG1/kappa constant regions) VH: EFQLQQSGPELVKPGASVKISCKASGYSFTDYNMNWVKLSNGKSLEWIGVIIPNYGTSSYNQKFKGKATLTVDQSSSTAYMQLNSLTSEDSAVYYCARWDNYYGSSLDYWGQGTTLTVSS VL: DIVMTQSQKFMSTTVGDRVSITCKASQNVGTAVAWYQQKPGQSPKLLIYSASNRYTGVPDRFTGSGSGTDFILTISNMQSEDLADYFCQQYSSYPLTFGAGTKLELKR | 27.8
